meta.source: PubChem BioAssay (NCI)

# System: HOP-62 NSCLC
# Protocol description: NCI-60 one-dose screen, 48 h
# Assay setup: 10 µM unless noted
The panel holds about 83,000 compounds, 20% with a hit somewhere; the sample as a whole holds those more often. Calls of active or inactive are those of the source. The calls were made as follows: active = growth percent below 10; inactive = the rest.
Outcome codes: TRUE = active, FALSE = inactive

>>> answer_label("O=C(NCc1ccc2c(c1)OCO2)NCC1CCCC(CNC(=O)NCc2ccc3c(c2)OCO3)C1 (configuration not stated)")
"FALSE"
>>> answer_label("COP(=O)(OC)c1nnn(-c2cccc([N+](=O)[O-])c2)c1C")
"FALSE"
>>> answer_label("CCN(CC)c1ccc(/C=N\\NC(=O)c2cccc(Nc3ccnc(C(F)(F)F)c3)c2)c(O)c1")
"FALSE"
>>> answer_label("Cc1cc(F)ccc1S(=O)(=O)Nc1cc(-c2c(O)ccc3ccccc23)c(O)c2ccccc12")
"FALSE"
>>> answer_label("Cc1cccc(-n2c(C)nc3ccc(N4CCCNC4=O)cc3c2=O)c1")
"FALSE"
>>> answer_label("Cc1c2cnccc2c(C)c2c1c1cc(C3OCCCO3)ccc1n2C")
"TRUE"
>>> answer_label("Oc1c(Cl)cc(Cl)c2ccc(Cn3cc(-c4cccc(C(F)(F)F)c4)nn3)nc12")
"FALSE"
